# target-or-system: recombinant human PDGF-BB (human, UniProt P01127 82-190, biotin-labelled in the binding and competition ELISAs (sites not given))
# Sequence (P01127 82-190 limits assumed): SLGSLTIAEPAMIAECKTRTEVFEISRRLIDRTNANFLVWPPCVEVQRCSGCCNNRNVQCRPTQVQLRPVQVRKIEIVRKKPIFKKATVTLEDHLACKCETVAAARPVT
# assay-details: cell-based or functional assay
The entries below are paired with their reported huPDGF-BB Neutralization Potency (nM) in NIH-3T3 Cells.
Kindly answer with a numeric value in nM, unit omitted.

binder	endpoint-value
chBFU-11A8-D6-C3 (antibody, human IgG1, V domains shown) VH: EVQLQQSGPELQRPGASVKLSCKASGYTFTESYIYWVKQRPEQSLELIGRIDPEDGSTDYVEKFKNKATLTADTSSNTAYMQLSSLTSEDTATYFCARFGARSYFYPMDAWGQGTSVTVSS VL: DTVLTQSPTLAVSPGERVSIPCRASESVSTLMHWYQQKPGQQPRLLIYGASNLESGVPARFSGSGSGTDFTLTIDPVEADDTATYFCQQSWNDPWTFGGGTKLELK	0.086
chBFU-3E2-B9-B8 (antibody, human IgG1, V domains shown) VH: EVQLQQSGPELQRPGASVKLSCKASGYTFTESYMYWVKQRPEQSLELIGRIDPEDGSTDYVEKFKNKATLTADTSSNTAYMQLSSLTSEDSATYFCARFGARSYFYPMDAWGQGTSVTVSS VL: DTVLTQPPALAVSPGERVSISCRASESVSTLMHWYQQKPGQQPRLLIYGASNLESGVPARFSGSGSGTDFTLTIDPVEADDTATYFCQQSWNDPWTFGGGTKLELK	0.099
chBDI-9E8 half-body (antibody, V domains shown) VH: QVTLKESGPGILQPSQTLSLTCTFSGFSLSTYGMGVGWIRQPSGKGLEWLANIWWDDDKYYNPSLKNRLTISKDTSNNQAFLKITNVDTADTATYYCARIESIGTTYSFDYWGQGVMVTVSS VL: QFTLTQPKSVSGSLRSTITIPCERSSGDIGDSYVSWYQQHLGRPPINVIYADDQRPSEVSDRFSGSIDSSSNSASLTITNLQMDDEADYFCQSYDINIDIVFGGGTKLTVL	1.84
chBDI-9E8 (antibody, V domains shown, also called chimeric BDI-9E8-E7) VH: QVTLKESGPGILQPSQTLSLTCTFSGFSLSTYGMGVGWIRQPSGKGLEWLANIWWDDDKYYNPSLKNRLTISKDTSNNQAFLKITNVDTADTATYYCARIESIGTTYSFDYWGQGVMVTVSS VL: QFTLTQPKSVSGSLRSTITIPCERSSGDIGDSYVSWYQQHLGRPPINVIYADDQRPSEVSDRFSGSIDSSSNSASLTITNLQMDDEADYFCQSYDINIDIVFGGGTKLTVL	0.058

Task: Field request: huPDGF-BB Neutralization Potency (nM) in NIH-3T3 Cells | item: chBDI-5H1 (antibody, human IgG1, V domains shown, also called chimeric BDI-5H1-F6) VH: QVTLKESGPGILQPSQTLSLTCTFSGFSLSTFGMGVGWIRQPSGKGLEWLANIWWDDDKYYNPSLKNRLTISKDTSNSQAFLEITNVDTADTATYYCARISTGISSYYVMDAWGQGASVTVSS VL: QFTLTQPKSVSGSLRSTITIPCERSSGDIGDTYVSWYQQHLGRPPINVIYGNDQRPSEVSDRFSGSIDSSSNSASLTITNLQMDDEADYFCQSYDSDIDIVFGGGTKLTVL
Output: 0.275

Measured values drawn from patent US20170015742A1 for this set.
